# method: Quantitative High-Throughput drug screen in 47 multiple myeloma cell lines against the NCATS MIPE library collection: Delta47_JCRB cell viability assay (AID 1918925; note: nearly all actives have a fitted effect of over 45% in size)
# setup-conditions: Delta47 myeloma viability, CellTiter-Glo ATP, 48 h; series mostly up to 45.8 µM
Records with an inconclusive call do not appear. Calls of active or inactive are those of the source. Calls come from the whole dose curve; as a rule, active = well fitted cell-killing curve with a large enough effect; inconclusive = small, poorly fitted or top-dose-only effect, or effect the other way; inactive = no such curve, though single readings can be large or run the other way.
Labels: Yes = active, No = inactive

compound	label-class
CN1c2ccccc2C(=O)N2CCc3c([nH]c4ccccc34)C21 (configuration not stated)	Yes
CN(C)S(=O)(=O)c1ccc2c(c1)C(=Cc1cc3c([nH]1)CCCC3)C(=O)N2	Yes
CCN1CCC(n2cc(CNc3cc(Cl)c4ncc(C#N)c(Nc5ccc(F)c(Cl)c5)c4c3)nn2)CC1	Yes
Cc1cccc(-c2[nH]c(C(C)(C)C)nc2-c2ccc3c(c2)OCO3)n1	Yes
C=CCc1cccc(C=NNC(=O)CN2CCN(Cc3ccccc3)CC2)c1O	Yes
CC(=O)N1CCN(c2ccc(OCc3nn(C)c(C)c3-c3cccc4c(CCCOc5cc(C)c(Cl)c(C)c5)c(C(=O)O)n(Cc5cccnc5)c34)cc2)CC1	Yes
CN1CCc2c(n(Cc3ccc(C(=O)NO)cc3)c3ccccc23)C1	Yes
N#CC1(c2cccc(C(=O)Nc3cc(Oc4ccc5nc(NC(=O)C6CC6)sc5n4)ccc3F)c2Cl)CC1	No
CN(C)CCOc1ccc(-c2nc(-c3ccc4c(c3)CCC4=NO)c(-c3ccncc3)[nH]2)cc1	Yes
CC(C)=CCCC(C)=CCCC(C)=CCCC(C)=CCCC(C)=CCCC(C)=CCCC(C)=CCCC(C)=CCCC(C)=CCO	No
O=C(Nc1ncc(SCCN2CCCC2)s1)[C@]1(c2ccc(S(=O)(=O)C3CC3)cc2)C[C@@H]1C1CCCCC1	Yes
O=C(O)C1=CC(O)C(O)[C@H](O)C1 (some centres not stated)	No
CC(C)N(CCCNC(=O)Nc1ccc(C(C)(C)C)cc1)C[C@H]1O[C@@H](n2cc(Br)c3c(N)ncnc32)[C@H](O)[C@H]1O	Yes
O[C@@H](COc1cccc2ncccc12)CN1CCN(C2c3ccccc3[C@@H]3[C@H](c4ccccc42)C3(F)F)CC1 (some centres not stated)	Yes
NC1(C(=O)N[C@@H](CCO)c2ccc(Cl)cc2)CCN(c2ncnc3[nH]ccc23)CC1	Yes
Cc1ccccc1-n1c(Cn2nc(-c3cccc(O)c3)c3c(N)ncnc32)nc2cccc(C)c2c1=O	Yes
Cc1cccc(Nc2nc(N[C@@H]3CCCC[C@H]3N)ncc2C(N)=O)c1	Yes
O=C(Nc1ccc(OC(F)(F)F)cc1)c1sccc1NCc1ccnc2ccccc12	Yes
COC(=O)[C@H](c1ccccc1Cl)N1CCc2sccc2C1	No
Clc1ccc(C2(c3ccc(-c4cn[nH]c4)cc3)CCNCC2)cc1	Yes
COc1ccc(-c2cc3nccn3c(Nc3ncccc3C(N)=O)n2)cc1OC	Yes
O=C(Nc1cccc(Cl)c1)Nc1ncc(CCNc2ncnc3ccsc23)s1	Yes
O=C(Nc1ccccc1)Nc1ccc(-c2ccc(C(=O)[C@H]3CCC[C@H]3C(=O)O)cc2)cc1	No
CN1[C@H]2CC[C@H]1CC(OC(=O)c1c[nH]c3ccccc13)C2 (some centres not stated)	Yes
O=C1CN2Cc3c(ccc(Cl)c3Cl)N=C2N1	Yes
CCCCC[C@H](O)C=C[C@H]1[C@H](O)CC(=O)[C@H]1CC=CCCCC(=O)O	No
CCNC(=O)c1noc(-c2cc(C(C)C)c(O)cc2O)c1-c1ccc(CN2CCOCC2)cc1	Yes
CCCCCOC(=O)Nc1nc(=O)n([C@@H]2O[C@H](C)[C@@H](O)C2O)cc1F (some centres not stated)	No
C[C@@H](O)[C@H]1C(=O)N2C(C(=O)OCOC(=O)C(C)(C)C)=C(SC3CN(C4=NCCS4)C3)[C@H](C)[C@H]12	No
Cc1csc(-c2nnc(Nc3ccc(Oc4ncccc4-c4ccnc(N)n4)cc3)c3ccccc23)c1	Yes
CN1CCC(COc2cnc(-c3cccc(Cn4nc(-c5cccc(C#N)c5)ccc4=O)c3)nc2)CC1	Yes
Cc1cn([C@@H]2C[C@@H](O)[C@H](CO)O2)c(=O)[nH]c1=O	No

* * *

# method: Primary qHTS for inhibitors of nuclear receptor binding SET domain protein 2 (NSD2) in an RCH-ACV wild type WT cells (2C) (AID 1645877); note: nearly all actives have a fitted effect of over 70% in size
# setup-conditions: RCH-ACV (leukaemia line) NSD2 WT (2C) viability, CellTiter-Glo, 72 h; series mostly up to 44.9 µM
Results filed as inconclusive are left out. Calls of active or inactive are those of the source. Calls follow the shape of the dose curve; as a rule, active = well fitted inhibition curve with a large enough effect; inconclusive = small, poorly fitted or top-dose-only effect; inactive = no such curve, though single readings can be large or run the other way.
Labels: active, inactive

given-smiles	label-class
COc1ccc(-c2oc3c(CC=C(C)C)c(O)cc(O)c3c(=O)c2O)cc1	inactive
c1cc(OCCN2CCCCC2)cc(-c2n[nH]c3ccc(-c4ncn[nH]4)cc23)c1	active
COc1ccc(-c2cc3nccn3c(Nc3ncccc3C(N)=O)n2)cc1OC	active

* * *

# Test system: MCC-13
# method: qHTS assay to identify novel small-molecules to repurpose for Merkel cell carcinoma treatment (AID 1296009); note: nearly all actives have a fitted effect of over 60% in size
# setup-conditions: MCC and control cell lines, CellTiter-Glo viability, 72 h; series mostly up to 46 µM
# Excerpt: MCC is a rare and aggressive neuroendocrine skin cancer with limited treatment options. Approximately 80% of MCCs have the Merkel cell polyomavirus (MCPyV) DNA integrated into the host genome (virus-positive: VP-MCC) and viral oncogenes drive oncogenesis. The remaining MCCs are virus-negative (VN-MCC) and are caused by UV mutagenesis. […] Using cell viability as a readout (CellTiter-Glo assay) we found both overlapping and distinct drugs that can be repurposed for the treatment of VP-MCC and VN-MCC. […]
Inconclusive results are not listed. Activity calls are given as the source filed them. Calls follow the shape of the dose curve; as a rule, active = well fitted inhibition curve with a large enough effect; inconclusive = small, poorly fitted or top-dose-only effect; inactive = flat fitted curve, though single readings scatter.
Outcomes: label 1 for active, label 0 for inactive

compound	label-class
CN1[C@H]2CC[C@H]1CC(OC(=O)c1c[nH]c3ccccc13)C2 (some centres undefined)	label 0
Cc1nc2c([nH]1)CCN(C(=O)c1ccc(NC(=O)c3ccccc3-c3ccccc3)cc1)c1ccccc1-2	label 0
COc1cccc(OC)c1-c1cc(C(=O)NC2(C(=O)O)C3CC4CC(C3)CC2C4)nn1-c1ccnc2cc(Cl)ccc12 (centres undefined)	label 0
c1ccc(CNc2nc(N3CCOc4ccccc43)nc3c2CCCC3)cc1	label 0
NC(N)=Nc1nc(CSCCC(N)=NS(N)(=O)=O)cs1	label 0
CCN1CCC(n2cc(CNc3cc(Cl)c4ncc(C#N)c(Nc5ccc(F)c(Cl)c5)c4c3)nn2)CC1	label 0
Cc1cc2nc3c(=O)[nH]c(=O)nc-3n(CC(O)C(O)C(O)CO)c2cc1C (centres undefined)	label 0
COc1ccc(CCC(=O)Nc2nc3ccc(Cl)cc3s2)cc1OC	label 0
CCOC(=O)[C@H](CCc1ccccc1)N[C@@H](C)C(=O)N1CCCC1C(=O)O (some centres undefined)	label 0
CN(C)CCN(Cc1ccc(Cl)cc1)c1ccccn1	label 0
C[C@@H]1[C@H](C)CC[C@]2(C(=O)O)CC[C@]3(C)C(=CC[C@@H]4[C@@]5(C)CC[C@H](O)C(C)(C)[C@H]5CC[C@]43C)[C@@H]12	label 0
OC[C@H]1O[C@@H](Oc2ccc(O)cc2)[C@H](O)[C@@H](O)[C@H]1O	label 0
CC(C)(OCc1nn(Cc2ccccc2)c2ccccc12)C(=O)O	label 0
CCC(c1ccc(O)cc1)C(CC)c1ccc(O)cc1 (centres undefined)	label 0
Cc1nc(C(=O)NCC(=O)O)c(O)c2ccc(Oc3ccccc3)cc12	label 0
CCC[C@@H](NC(=O)[C@@H]1[C@H]2CCC[C@@H]2CN1C(=O)[C@@H](NC(=O)[C@@H](NC(=O)c1cnccn1)C1CCCCC1)C(C)(C)C)C(=O)C(=O)NC1CC1	label 0
O=C(O)CCNc1cc(N2CCc3ccccc3CC2)nc(-c2ccccn2)n1	label 0
CCNC(=O)Nc1ccc(Oc2ncnc(N)c2C=NOC)cc1Cl	label 0
CC(=O)N1CCN(c2ccc(OCc3nn(C)c(C)c3-c3cccc4c(CCCOc5cc(C)c(Cl)c(C)c5)c(C(=O)O)n(Cc5cccnc5)c34)cc2)CC1	label 0
CN1CCC(COc2cnc(-c3cccc(Cn4nc(-c5cccc(C#N)c5)ccc4=O)c3)nc2)CC1	label 0
Cn1c(=O)c(-c2c(Cl)cccc2Cl)cc2cnc(Nc3cccc(C(=O)O)c3)nc21	label 0
CN1c2ccccc2C(=O)N2CCc3c([nH]c4ccccc34)C21 (centres undefined)	label 0
Cc1ccc(C(=O)N(CCCN)[C@@H](c2oc3cc(Cl)ccc3c(=O)c2Cc2ccccc2)C(C)C)cc1	label 1
COc1ccc2c(c1)c(C1=C(c3c[nH]c4ccccc34)C(=O)NC1=O)cn2CCCN(C)C	label 0
O=C(c1ccc(C=Cc2n[nH]c3ccccc23)cc1)N1CCNCC1	label 0
C[C@@H](O)[C@H]1C(=O)N2C(C(=O)OCOC(=O)C(C)(C)C)=C(SC3CN(C4=NCCS4)C3)[C@H](C)[C@H]12	label 0
CC1CNc2c(cccc2S(=O)(=O)N[C@@H](CCCN=C(N)N)C(=O)N2CC[C@@H](C)C[C@@H]2C(=O)O)C1 (some centres undefined)	label 0
C[C@@H](NC(=O)c1ncnc(N)c1Cl)c1ncc(C(=O)Nc2cc(C(F)(F)F)c(Cl)cn2)s1	label 0
O=[N+]([O-])c1ccc(Nc2ccccc2-c2ccccc2)c2nonc12	label 0
COc1cc(F)c(C(C)C)cc1-c1ccc(C(F)(F)F)cc1CN1C(=O)O[C@H](c2cc(C(F)(F)F)cc(C(F)(F)F)c2)[C@@H]1C	label 0
O=C(O)c1ccc(O)c2ncc(N3CCOCC3)cc12	label 0
CCC[C@H](N[C@@H](C)C(=O)N1[C@@H]2CCCC[C@H]2C[C@H]1C(=O)O)C(=O)OCC	label 0
Cc1ccc(S(=O)(=O)OCC(=O)Nc2ccc(C(=O)O)c(O)c2)cc1	label 0
COc1ccc(-c2oc3c(CC=C(C)C)c(O)cc(O)c3c(=O)c2O)cc1	label 0
